# protocolDetails: Pharmacokinetics of methotrexate in plasma after subcutaneous injection with autoinjector or needle/syringe
# conditionDetails: male, Gottingen, minipig, plasma, sc, 12.5 mg, AUC(0-τ), Syringe; 12.5 mg SC; animals S5196273/S5196559/S5196206
quantity: AUC (ng·h/mL)

1. CN(Cc1cnc2nc(N)nc(N)c2n1)c1ccc(C(=O)N[C@@H](CCC(=O)O)C(=O)O)cc1 [Methotrexate] : 1320

###

# protocolDetails: Pharmacokinetics of methotrexate in plasma after subcutaneous injection with autoinjector or needle/syringe
# conditionDetails: female, Gottingen, minipig, plasma, sc, 12.5 mg, AUC(0-inf), Syringe; 12.5 mg SC; Mean
quantity: AUC(0-inf) (ng·h/mL)

1. CN(Cc1cnc2nc(N)nc(N)c2n1)c1ccc(C(=O)N[C@@H](CCC(=O)O)C(=O)O)cc1 [Methotrexate] : 2300
